Assignment: determine reported TNFα, Luminex (supernatant) for the given binders.
- target-or-test-system: T1, T cell receptor (TCR) Vγ9 (TRGV9) (human, UniProt Q99603 21-122); also: unit not given here
- T1 chain (looked up): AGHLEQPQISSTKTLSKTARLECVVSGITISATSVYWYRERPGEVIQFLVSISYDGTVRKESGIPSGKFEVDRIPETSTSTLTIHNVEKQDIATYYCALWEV
- assay-text: cell-based or functional assay

Lookup: // lookup TNFα, Luminex (supernatant) for VG9B44 (antibody, human IgG1, kappa, V domains shown) VH: QVQLQQSGPGLVKPSQTLSLTCAISGDSVSSNSAAWNWIRQSPSRGLEWLGRTYYRSKWYNDYPISVKSRISINPDTSKNQFSLQLNSVTPEDTAVYYCARESGSYYTDGFDIWGQGTMVTVSS VL: DIQMTQSPSFLSASVGDRVTITCRASQGISSYLAWYQQKPGKAPKLLIYAASTLQSGVPSRFSGSGSGTEFTLTISSLQPEDFATYYCQEFNSYPYTFGQGTKLEIKR
Found: 198

Lookup: // lookup TNFα, Luminex (supernatant) for VG9B127 (antibody, human IgG1, kappa, V domains shown) VH: QVQLVESGGGLVKPGGSLRLSCTASGFTFGAYTMNWVRQAPGKGLEWVSSISSSSSYIDFAESVKGRFTISRDNAKNSLYLQMISLRAEDTAVYYCARDGDIVSTIRGSFDYWGQGALVTVSS VL: EIVMTQSPLSLPVTPGEPASISCRSSQSLLDSDDGNTYLDWYLQKPGQSPQLLIYTLSYRASGVPDRFSGSGSGTDFTLKISRVEAEDVGIYYCMQRIEFPITFGQGTKVEIKR
Found: 709

Lookup: // lookup TNFα, Luminex (supernatant) for VG9B191 (antibody, human IgG1, lambda, V domains shown) VH: EVQLVQSGGGLVKPGGSLRLSCAASGFTFSRYSMNWVRQAPGKGLEGVSSISSSSSYIYYADSVKGRFTISRDNAKNSLYLQMNSLRAEDTAVYYCARDGPTVNWDYYFDLWGRGTLVTVSS VL: QSVLTQPPSVSAAPGQKVTISCSGSSSNIGNNYVSWYQQLPGTAPKLLIYDNNKRPSGIPDRFSGSKSGTSATLGITGLQTGDEADYYCGTWDSSLSTSVVFGGGTKLTVLG
Found: 7320

Lookup: // lookup TNFα, Luminex (supernatant) for VG9B36 (antibody, human IgG1, kappa, V domains shown) VH: QVQLVESGGGLVKPGGSLRLSCASSGFTFSSYGMYWVRQAPGKGLEWVSSISTGSSYIYYADSVKGRFTISRDNAKNSLYLQMNSLRAEDTAVYYCARDKGLAVTGYIMDVWGQGTTVTVSS VL: EIVLTQSPSSLSASVGDRVTITCQASQDISNYLNWYQQKPGKAPKLLIYDASNLETGVPSRFSGSGSGTDFTFTISSLQPEDIAIYYCQQYDNLPMYTFGQGTKVEIKR
Found: 188

Lookup: // lookup TNFα, Luminex (supernatant) for VG9B33 (antibody, human IgG1, kappa, V domains shown) VH: EVQLVESGGGLVKPGGSLRLSCAASGFTFSSYNMNWVRQAPGKGLEWVSSISTSSSYIYYADSVKGRFTISRDNAKNSLYLQMNGLRAEDTAVYYCARDTSVTKYPDTFDIWGQGTMVTVSS VL: DIVMTQSPSSLSASVGDRVTITCRASQDINNYLAWFQQKPGKVPNLLIYGASTLQSGVPSRFTGSGSGTDFTLTISSLQPEDVATYYCQKYNSAPFTFGPGTKVDIKR
Found: 85

Lookup: // lookup TNFα, Luminex (supernatant) for VG9B162 (antibody, human IgG1, lambda, V domains shown) VH: QVQLVESGAEVTKPGASVKVSCKASGYTFTGDYMHWVRQAPGQGLEWMGWINPNSGYTNYAQKFQGRVTMTRDTSISTAYMELSRLRSDDTAVYYCAREGDAFDVWGQGTMVTVSS VL: QLVLTQSSSASGSPGQSVTISCTGTSSDVGGYNYVSWYQQHPGKAPKLMIYEVSKRPSGVPDRFSGSKSGNTASLTVSGLQAEDEADYYCNSYAGSNNFEVFGGGTKLTVLG
Found: 329

Lookup: // lookup TNFα, Luminex (supernatant) for VG9B67 (antibody, human IgG1, kappa, V domains shown) VH: EVQLVESGGGLVKPGGSLRLSCAASGFTFSSYTMNWVRQAPGKGLEWVSSISSSSSYIDYAESVKGRFTISRDNAKNSLYLQMNSLRAEDTAVYYCARDGDILATIRGSFDYWGQGTTVTVSS VL: DIVMTQTPLSLPVTPGEPASISCRSSQSLLDSDAGNTYLDWYLQKPGQSPQLLIYTLSYRASGVPDRFSGSGSGTDFTLKISRVEAEDVAIYYCMQRIEFPITFGQGTKVEIKR
Found: 144

Lookup: // lookup TNFα, Luminex (supernatant) for VG9B384 (antibody, human IgG1, lambda, V domains shown) VH: QVQLQESGPALVKPTQTLTLTCTFSGFSLSSSGMCVSWIRQPPGKALEWLTLIDWFDDKYYSTSLKTRLTISKDTSKNQVVLTMTNMDPVDTATYYCARIRGTGAYYYGLDVWGQGTMVTVSS VL: SYELMQPPSVSVSPGQTASITCSGNELGDKYASWYQQQPGQSPVLVIYQDNKRPSGIPERFSGSNSGNTATLTISGTQAMDEADYYCQAWDSSKVVFGGGTKLTVLG
Found: 3740
